Reported pKd values follow for various binders
TARGET_SYSTEM: T1, Benefix (Pfizer Inc, USA), FIX (human, UniProt P00740 47-461)
T1 construct: Bought product; also called FIX (Benefix®)
T1 sequence (P00740 47-461 T194A limits assumed): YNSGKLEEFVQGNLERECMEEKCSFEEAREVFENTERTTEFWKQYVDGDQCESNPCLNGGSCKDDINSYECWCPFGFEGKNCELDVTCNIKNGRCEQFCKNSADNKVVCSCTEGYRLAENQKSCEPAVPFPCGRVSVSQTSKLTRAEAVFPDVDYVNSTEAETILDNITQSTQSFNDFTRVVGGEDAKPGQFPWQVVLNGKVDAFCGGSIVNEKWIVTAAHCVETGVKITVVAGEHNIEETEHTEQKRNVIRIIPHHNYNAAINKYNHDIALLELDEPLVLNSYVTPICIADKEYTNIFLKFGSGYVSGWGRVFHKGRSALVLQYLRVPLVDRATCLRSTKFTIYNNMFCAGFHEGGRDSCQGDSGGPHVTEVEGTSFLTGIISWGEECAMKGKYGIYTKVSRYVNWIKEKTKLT
ASSAY_INFO: SPR, FIX (Benefix) captured on immobilised anti-GLA-FIX antibody, steady state analysis, 25 C
pKd is defined as minus the log10 of a concentration measured in mol/L.

[
  {
    "BINDER": "Cmpd #9 (anti-FX/anti-FIX(a) VHH polypeptide derivative) (bispecific antibody, C16 diacid protractor (P2) via linker LP1 on Cys4 and Cys6 in C-term extension (SEQ ID NO: 9), Single chain of two VHH: anti-FX (N-terminal) and anti-FIX(a) (C-terminal)) DVQLVESGGGVVQPGGSLQLSCAASGGTKSRYAMGWFRQAPGQEREFVAAISRRGGSTNYADSVKGRFTISRDNSKNTVYLDMDDLRPEDTALYYCAADDSVGDGYLDYWGQGTLVTVSSGQAPGQEVQLVESGGGVVQPGGSLRLSCAASGRTFNIYTMSWFRQDPGQEREFVAGLRWTDSSTEYADSVKGRFTISRDNSKNTVYLQMNSLRPEDTALYYCAADRSFLFAQALGATKNYEYWGQGTLVTVSSGQACPC",
    "DATA_VALUE": 8.96
  },
  {
    "BINDER": "Cmpd #6 (anti-FX/anti-FIX(a) VHH polypeptide derivative) (bispecific antibody, C16 diacid protractor (P2) via linker LP1 on Cys5 and Cys7 in C-term extension (SEQ ID NO: 8), Single chain of two VHH: anti-FX (N-terminal) and anti-FIX(a) (C-terminal)) DVQLVESGGGVVQPGGSLQLSCAASGRTHSRYAMGWFRQAPGQEREFVAAISRRGGSTNYADSVKGRFTISRDNSKNTVYLQMDSLRPEDTALYYCAADDSSGDGYLDYWGQGTLVTVSSGGGGSGGGSEVQLVESGGGVVQPGGSLQLSCAASGRTFNIYTMSWFRQAPGQEREFVAGLRWTDSSTEYADSVKGRFTISRDNSKNTVYLQMDSLRPEDTALYYCAADRSFLFAQALGATKNYEYWGQGTLVTVSSGGGGCSCHHHHHH",
    "DATA_VALUE": 8.32
  },
  {
    "BINDER": "Cmpd #8 (anti-FX/anti-FIX(a) VHH polypeptide derivative) (bispecific antibody, C16 diacid protractor (P2) via linker LP1 on Cys4 and Cys6 in C-term extension (SEQ ID NO: 9), Single chain of two VHH: anti-FX (N-terminal) and anti-FIX(a) (C-terminal)) DVQLVESGGGVVQPGGSLQLSCAASGGTKSRYAMGWFRQAPGQEREFVAAISRRGGSTNYADSVKGRFTISRDNSKNTVYLQMDSLRPEDTALYYCAADDSVGDGYLDYWGQGTLVTVSSGQAPGQEVQLVESGGGVVQPGGSLQLSCAASGRTFNIYTMSWFRQAPGQEREFVAGLRWTDSSTEYADSVKGRFTISRDNSKNTVYLQMDSLRPEDTALYYCAADRSFLFAQALGATKNYEYWGQGTLVTVSSGQACPC",
    "DATA_VALUE": 8.60
  },
  {
    "BINDER": "Cmpd #13 (anti-FX/anti-FIX(a) VHH polypeptide derivative) (bispecific antibody, C16 diacid protractor (P2) via linker LP1 on Cys4 and Cys6 in C-term extension (SEQ ID NO: 9), Single chain of two VHH: anti-FX (N-terminal) and anti-FIX(a) (C-terminal); also called VHH1.13-L1-2-VHH2.13-E) DVQLVESGGGVVQPGGSLQLSCAASGGTKRRLAMGWFRQAPGQEREWVAAISRRGGSTNYADSVKGRFTISRDNSKNTVYLDMDDLRPEDTALYYCAADDSVGDGYLDYWGQGTLVTVSSGQAPGQEVQLVESGGGVVQPGGSLQLSCAASGRTFNIYTMSWFRQDPGQEREFVAGLRWTDSSTEYADSVKGRFTISRDNSKNTVYLQMDSLRPEDTALYYCAADRSFLFAQALGATKNYEYWGQGTLVTVSSGQACPC",
    "DATA_VALUE": 8.70
  }
]

Endpoint output: pKd of Cmpd #5 (anti-FX/anti-FIX(a) VHH polypeptide derivative) (bispecific antibody, C18 diacid protractor (P3) via linker LP1 on Cys6 in C-term extension (SEQ ID NO: 7), Single chain of two VHH: anti-FX (N-terminal) and anti-FIX(a) (C-terminal)) DVQLVESGGGVVQPGGSLQLSCAASGRTHSRYAMGWFRQAPGQEREFVAAISRRGGSTNYADSVKGRFTISRDNSKNTVYLQMDSLRPEDTALYYCAADDSSGDGYLDYWGQGTLVTVSSGGGGSGGGSEVQLVESGGGVVQPGGSLQLSCAASGRTFNIYTMSWFRQAPGQEREFVAGLRWTDSSTEYADSVKGRFTISRDNSKNTVYLQMDSLRPEDTALYYCAADRSFLFAQALGATKNYEYWGQGTLVTVSSGGGGSCHHHHHH . Value?
8.57

Endpoint output: pKd of Cmpd #11 (anti-FX/anti-FIX(a) VHH polypeptide derivative) (bispecific antibody, C16 diacid protractor (P2) via linker LP1 on Cys4 and Cys6 in C-term extension (SEQ ID NO: 9), Single chain of two VHH: anti-FX (N-terminal) and anti-FIX(a) (C-terminal)) DVQLVESGGGVVQPGGSLQLSCAASGGTKRRLAMGWFRQAPGQEREFVAAISRRGGSTNYADSVKGRFTISRDNSKNTVYLDMDDLRPEDTALYYCAADDSVGDGYLDYWGQGTLVTVSSGQAPGQEVQLVESGGGVVQPGGSLRLSCAASGRTFNIYTMSWFRQDPGQEREFVAGLRWTDSSTEYADSVKGRFTISRDNSKNTVYLQMNSLRPEDTALYYCAADRSFLFAQALGATKNYEYWGQGTLVTVSSGQACPC . Value?
8.19

Endpoint output: pKd of Cmpd #7 (anti-FX/anti-FIX(a) VHH polypeptide derivative) (bispecific antibody, C16 diacid protractor (P2) via linker LP1 on Cys4 and Cys6 in C-term extension (SEQ ID NO: 9), Single chain of two VHH: anti-FX (N-terminal) and anti-FIX(a) (C-terminal)) DVQLVESGGGVVQPGGSLQLSCAASGGTKSRYAMGWFRQAPGQEREFVAAISRRGGSTNYADSVKGRFTISRDNSKNTVYLQMDSLRPEDTALYYCAADDSVGDGYLDYWGQGTLVTVSSGQAPGQEVQLVESGGGVVQPGGSLRLSCAASGRTFNIYTMSWFRQAPGQEREFVAGLRWTDSSTEYADSVKGRFTISRDNSKNTVYLQMNSLRPEDTALYYCAADRSFLFAQALGATKNYEYWGQGTLVTVSSGQACPC . Value?
8.64

Endpoint output: pKd of Cmpd #14 (anti-FX/anti-FIX(a) VHH polypeptide derivative) (bispecific antibody, C16 diacid protractor (P2) via linker LP1 on Cys4 and Cys6 in C-term extension (SEQ ID NO: 9), Single chain of two VHH: anti-FX (N-terminal) and anti-FIX(a) (C-terminal); also called VHH1.14-L1-2-VHH2.14-E) DVQLVESGGGVVQPGGSLQLSCAASGGTKRRLAMGWFRQAPGQEREFVAAISRRGGSTNYADSVKGRFTISRDNSKNTVYLQMDSLRPEDTALYYCAADDSVGDGYLDYWGQGTLVTVSSGQAPGQEVQLVESGGGVVQPGGSLQLSCAASGRTFNIYTMSWFRQAPGQEREFVAGLRWTDSSTEYADSVKGRFTISRDNSKNTVYLQMDSLRPEDTALYYCAADRSFLFAQALGATKNYEYWGQGTLVTVSSGQACPC . Value?
8.80

Endpoint output: pKd of Cmpd #12 (anti-FX/anti-FIX(a) VHH polypeptide derivative) (bispecific antibody, C16 diacid protractor (P2) via linker LP1 on Cys4 and Cys6 in C-term extension (SEQ ID NO: 9), Single chain of two VHH: anti-FX (N-terminal) and anti-FIX(a) (C-terminal); also called VHH1.12-L1-2-VHH2.12-E) DVQLVESGGGVVQPGGSLQLSCAASGGTKRRLAMGWFRQAPGQEREFVAAISRRGGSTNYADSVKGRFTISRDNSKNTVYLDMDDLRPEDTALYYCAADDSVGDGYLDYWGQGTLVTVSSGQAPGQEVQLVESGGGVVQPGGSLQLSCAASGRTFNIYTMSWFRQDPGQEREFVAGLRWTDSSTEYADSVKGRFTISRDNSKNTVYLQMDSLRPEDTALYYCAADRSFLFAQALGATKNYEYWGQGTLVTVSSGQACPC . Value?
8.11
